target_entity: recombinant human Mcl-1 (residues 171-327) / Bim interaction (Homo sapiens (Human))
Sequence (Q07820 171-327): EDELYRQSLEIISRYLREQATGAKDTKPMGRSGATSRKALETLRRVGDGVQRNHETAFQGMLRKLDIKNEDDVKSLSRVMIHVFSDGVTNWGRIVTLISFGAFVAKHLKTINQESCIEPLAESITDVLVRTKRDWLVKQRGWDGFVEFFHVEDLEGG
assay_details: biochemical
Format: binding
test_parameters: TR-FRET, Mcl-1(171-327) / biotin-Bim (51-76); read-out: Mcl-1 HTRF IC50
Labelling: IC50 reported below 400 pM becomes Condition met; at or above becomes Condition not met.

compound: CC[C@@H]1CCCC[C@@](O)(CO)[C@@H]2CC[C@H]2CN2C[C@@]3(CCCc4cc(Cl)ccc43)COc3ccc(cc32)C(=O)NS1(=O)=O
qualitative_label: Condition not met
--
compound: CO[C@]1(CCN2CCN3CCCC[C@@H]3C2)/C=C/C[C@H](C)[C@@H](C)S(=O)(=O)NC(=O)c2ccc3c(c2)N(C[C@@H]2CC[C@H]21)C[C@@]1(CCCc2cc(Cl)ccc21)CO3
qualitative_label: Condition met
--
compound: C[C@@H]1[C@@H](C)CCC[C@@](O)(CC#N)[C@@H]2CC[C@H]2CN2C[C@@]3(CCCc4cc(Cl)ccc43)COc3ccc(cc32)C(=O)NS1(=O)=O (single isomer, unassigned)
qualitative_label: Condition not met
--
compound: C[C@@H]1[C@@H](C)CCC[C@](O)([C@@H](C)C(=O)N(C)C)[C@@H]2CC[C@H]2CN2C[C@@]3(CCCc4cc(Cl)ccc43)COc3ccc(cc32)C(=O)NS1(=O)=O (single isomer, unassigned) [Example 100118]
qualitative_label: Condition not met
--
compound: C[C@@H]1[C@@H](C)CCC[C@@](O)(C#CCN2CCOCC2)[C@@H]2CC[C@H]2CN2C[C@@]3(CCCc4cc(Cl)ccc43)COc3ccc(cc32)C(=O)NS1(=O)=O
qualitative_label: Condition met
--
compound: CO[C@@]1(C)/C=C/C[C@H](C)[C@@H](CCN2CCOCC2)S(=O)(=O)NC(=O)c2ccc3c(c2)N(C[C@@H]2CC[C@H]21)C[C@@]1(CCCc2cc(Cl)ccc21)CO3 (single isomer, unassigned) [Example 100595]
qualitative_label: Condition met
--
compound: C[C@@H]1[C@@H](C)C/C=C/[C@](O)(c2ncccc2F)[C@@H]2CC[C@H]2CN2C[C@@]3(CCCc4cc(Cl)ccc43)COc3ccc(cc32)C(=O)NS1(=O)=O
qualitative_label: Condition met
--
compound: C[C@@H]1[C@@H](C)C/C=C/[C@@](O)([C@@H]2CCN(C)C2=O)[C@@H]2CC[C@H]2CN2C[C@@]3(CCCc4cc(Cl)ccc43)COc3ccc(cc32)C(=O)NS1(=O)=O [Example 100137]
qualitative_label: Condition met
--
compound: C[C@@H]1[C@@H](C)CCC[C@](O)(CS(C)(=O)=O)[C@@H]2CC[C@H]2CN2C[C@@]3(CCCc4cc(Cl)ccc43)COc3ccc(cc32)C(=O)NS1(=O)=O (stereo in doubt)
qualitative_label: Condition met
--
compound: C[C@@H]1[C@@H](C)C/C=C/[C@](O)(C2SCCCS2)[C@@H]2CC[C@H]2CN2C[C@@]3(CCCc4cc(Cl)ccc43)COc3ccc(cc32)C(=O)NS1(=O)=O
qualitative_label: Condition not met
--
compound: CC[C@@H]1CCCC[C@](O)(CO)[C@@H]2CC[C@H]2CN2C[C@@]3(CCCc4cc(Cl)ccc43)COc3ccc(cc32)C(=O)NS1(=O)=O
qualitative_label: Condition not met
--
compound: C[C@@H]1[C@@H](C)C/C=C/[C@](O)(c2ncccn2)[C@@H]2CC[C@H]2CN2C[C@@]3(CCCc4cc(Cl)ccc43)COc3ccc(cc32)C(=O)NS1(=O)=O (single isomer, unassigned)
qualitative_label: Condition met
--
compound: C[C@@H]1[C@@H](C)C/C=C/[C@@](O)(C[S@@+](C)[O-])[C@@H]2CC[C@H]2CN2C[C@@]3(CCCc4cc(Cl)ccc43)COc3ccc(cc32)C(=O)NS1(=O)=O (stereo in doubt) [Example 100075]
qualitative_label: Condition not met
--
compound: COc1ncccc1[C@@]1(O)/C=C/C[C@H](C)[C@@H](C)S(=O)(=O)NC(=O)c2ccc3c(c2)N(C[C@@H]2CC[C@H]21)C[C@@]1(CCCc2cc(Cl)ccc21)CO3 (single isomer, unassigned) [Example 100334]
qualitative_label: Condition not met
--
compound: C[C@@H]1[C@@H](C)C/C=C/[C@](O)(c2cnc(Cl)n2C)[C@@H]2CC[C@H]2CN2C[C@@]3(CCCc4cc(Cl)ccc43)COc3ccc(cc32)C(=O)NS1(=O)=O (single isomer, unassigned)
qualitative_label: Condition not met
--
compound: C[C@@H]1[C@@H](C)C/C=C/[C@](O)(Cc2ccnc(C#N)c2)[C@@H]2CC[C@H]2CN2C[C@@]3(CCCc4cc(Cl)ccc43)COc3ccc(cc32)C(=O)NS1(=O)=O [Example 100187]
qualitative_label: Condition not met
--
compound: CO[C@@]1(CC2=N[C@H](C)C(=O)O2)/C=C/C[C@H](C)[C@@H](C)S(=O)(=O)NC(=O)c2ccc3c(c2)N(C[C@@H]2CC[C@H]21)C[C@@]1(CCCc2cc(Cl)ccc21)CO3 (stereo in doubt)
qualitative_label: Condition met
--
compound: C[C@@H]1[C@@H](C)C/C=C/[C@](O)(C(F)(F)C(=O)N(C)C)[C@@H]2CC[C@H]2CN2C[C@@]3(CCCc4cc(Cl)ccc43)COc3ccc(cc32)C(=O)NS1(=O)=O
qualitative_label: Condition met

Hey, just so you know, these numbers are from patent US10821115B2.
